# test-target: JNK3 (Homo sapiens, UniProt P53779)
# Construct: One such construct encodes amino acid residues Ser40-Glu402 of JNK3α1 and is preceded by Met and Gly residues; Met-Gly (initiation methionine plus glycine added for the NcoI site)
# Sequence (P53779 40-402): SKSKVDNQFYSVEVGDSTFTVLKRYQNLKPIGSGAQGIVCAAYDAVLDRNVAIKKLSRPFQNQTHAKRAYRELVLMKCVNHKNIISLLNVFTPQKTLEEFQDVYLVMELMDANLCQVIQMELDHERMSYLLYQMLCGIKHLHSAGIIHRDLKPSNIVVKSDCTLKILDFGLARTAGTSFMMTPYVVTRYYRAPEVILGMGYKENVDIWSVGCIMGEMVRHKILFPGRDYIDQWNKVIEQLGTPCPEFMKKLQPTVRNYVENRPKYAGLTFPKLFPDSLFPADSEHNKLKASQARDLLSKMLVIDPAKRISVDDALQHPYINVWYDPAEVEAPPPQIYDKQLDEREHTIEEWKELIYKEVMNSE
# assay-explanation: JNK inhibition assay: spectrophotometric coupled-enzyme assay with activated JNK3
# condition-description: activated JNK3 10 nM, 10 μM ATP, 200 μM EGF receptor peptide, 30° C., competitive inhibition model
pKi: −log10 of the molar value.
Catalogue of compounds with associated pKi

Observe how each entry below is paired with its result.
[
  {
    "compound-structure": "Cc1cc(C)c2c(c1)/C(=N/O)C(=O)N2Cc1ccccc1C#N",
    "test-target": "JNK3 (Homo sapiens, UniProt P53779)",
    "pKi": "≤ 6.00"
  },
  {
    "compound-structure": "O=C1/C(=N\\O)c2cc(OC(F)(F)F)ccc2N1Cc1cccc([N+](=O)[O-])c1",
    "test-target": "JNK3 (Homo sapiens, UniProt P53779)",
    "pKi": "≤ 6.00"
  },
  {
    "compound-structure": "O=C1c2ccccc2C(=O)N1CCCN1C(=O)/C(=N\\O)c2ccc(-c3ccccc3)cc21",
    "test-target": "JNK3 (Homo sapiens, UniProt P53779)",
    "pKi": "≤ 6.00"
  },
  {
    "compound-structure": "O=C(O)CCc1ccc(-c2ccc3c(c2)N(Cc2cc(F)cc4c2OCOC4)C(=O)/C3=N\\O)cc1",
    "test-target": "JNK3 (Homo sapiens, UniProt P53779)",
    "pKi": "> 6.00"
  },
  {
    "compound-structure": "Cc1cccc(CN2C(=O)/C(=N\\O)c3cc(Br)ccc32)c1",
    "test-target": "JNK3 (Homo sapiens, UniProt P53779)",
    "pKi": "≤ 6.00"
  },
  {
    "compound-structure": "Cc1ccc(-c2ccc3c(c2)N(Cc2cc(F)cc4c2OCOC4)C(=O)/C3=N\\O)cc1C",
    "test-target": "JNK3 (Homo sapiens, UniProt P53779)",
    "pKi": "> 6.00"
  },
  {
    "compound-structure": "CC(=O)Nc1ccc2c(c1)N(Cc1cc(F)cc3c1OCOC3)C(=O)/C2=N\\O",
    "test-target": "JNK3 (Homo sapiens, UniProt P53779)",
    "pKi": "> 6.00"
  },
  {
    "compound-structure": "O=C(NCc1cccc(Cl)c1)c1ccc2c(c1)N(Cc1cc(F)cc3c1OCOC3)C(=O)/C2=N\\O",
    "test-target": "JNK3 (Homo sapiens, UniProt P53779)",
    "pKi": "≤ 6.00"
  }
]

Report measured pKi; entry is `Cc1ccc(-c2ccc3c(c2)N(Cc2cc(F)cc4c2OCOC4)C(=O)/C3=N\O)cc1`
≤ 6.00

Report measured pKi; entry is `Cc1cc(C)c2c(c1)/C(=N/O)C(=O)N2Cc1cccc(Oc2ccccc2)c1`
≤ 6.00

----------
# test-target: JNK3 (Homo sapiens, UniProt P53779)
# Construct: One such construct encodes amino acid residues Ser40-Glu402 of JNK3α1 and is preceded by Met and Gly residues; Met-Gly (initiation methionine plus glycine added for the NcoI site)
# assay-explanation: JNK inhibition assay: spectrophotometric coupled-enzyme assay with activated JNK3
# condition-description: activated JNK3 10 nM, 10 μM ATP, 200 μM EGF receptor peptide, 30° C., competitive inhibition model
# Method: A BLAST search of the EST database using the published JNK3α1 cDNA as a query identified an EST clone (#632588) that contained the entire coding sequence for human JNK3α1. […] Compounds were assayed for the inhibition of JNK3 by a spectrophotometric coupled-enzyme assay. […] The decrease of absorbance at 340 nm was monitored as a function of time. […]
pKi: −log10 of the molar value.
measured-property: pKi

Observe how each entry below is paired with its result.
[
  {
    "compound": "Nc1cccc2c1/C(=N/O)C(=O)N2Cc1cc(F)cc2c1OCOC2 [Compound 282]",
    "pKi": "≤ 6.00"
  },
  {
    "compound": "O=C1/C(=N\\O)c2cc(Cl)ccc2N1Cc1ccc(Cl)c(Cl)c1 [Compound 13]",
    "pKi": "> 6.00"
  },
  {
    "compound": "Cc1cccc2c1/C(=N/O)C(=O)N2Cc1cc(F)cc2c1OCOC2 [Compound 301]",
    "pKi": "> 6.00"
  },
  {
    "compound": "Cc1cc(C)c2c(c1)N(Cc1cc(F)cc3c1OCOC3)C(=O)/C2=N\\O [Compound 167]",
    "pKi": "> 6.00"
  },
  {
    "compound": "O=C(Nc1ccc2c(c1)N(Cc1cc(F)cc3c1OCOC3)C(=O)/C2=N\\O)c1ccccc1Cl [Compound 342]",
    "pKi": "> 6.00"
  },
  {
    "compound": "O=C(NCCc1c[nH]cn1)c1ccc2c(c1)N(Cc1cc(F)cc3c1OCOC3)C(=O)/C2=N\\O [Compound 292]",
    "pKi": "≤ 6.00"
  }
]

Report measured pKi; entry is O=C1/C(=N\O)c2cc(N(CC3CCCCC3)CC3CCCCC3)ccc2N1Cc1cc(F)cc2c1OCOC2 [Compound 310]
≤ 6.00

Report measured pKi; entry is O=C1/C(=N\O)c2cc(F)ccc2N1Cc1csc(-c2ccc(Cl)cc2)n1 [Compound 86]
≤ 6.00

Report measured pKi; entry is COC(=O)c1cccc(CN2C(=O)/C(=N/O)c3ccc(-c4ccsc4)cc32)c1 [Compound 185]
≤ 6.00

Report measured pKi; entry is O=C1/C(=N\O)c2cc(-c3cccnc3)ccc2N1Cc1cc(F)cc2c1OCOC2 [Compound 281]
≤ 6.00

Report measured pKi; entry is CCOC(=O)CCNC(=O)c1ccc2c(c1)N(Cc1cc(F)cc3c1OCOC3)C(=O)/C2=N\O [Compound 296]
≤ 6.00

----------
# test-target: JNK3 (Homo sapiens, UniProt P53779)
# Construct: One such construct encodes amino acid residues Ser40-Glu402 of JNK3α1 and is preceded by Met and Gly residues; Met-Gly (initiation methionine plus glycine added for the NcoI site)
# assay-explanation: JNK inhibition assay: spectrophotometric coupled-enzyme assay with activated JNK3
# condition-description: activated JNK3 10 nM, 10 μM ATP, 200 μM EGF receptor peptide, 30° C., competitive inhibition model
pKi: −log10 of the molar value.
measured-property: pKi

Observe how each entry below is paired with its result.
[
  {
    "compound-structure": "O=C1/C(=N\\O)c2ccccc2N1Cc1ccccc1F",
    "pKi": "≤ 6.00"
  },
  {
    "compound-structure": "O=C(c1ccccc1)c1ccc2c(c1)/C(=N/O)C(=O)N2Cc1cc(F)cc2c1OCOC2",
    "pKi": "≤ 6.00"
  },
  {
    "compound-structure": "COc1cc(CN2C(=O)/C(=N\\O)c3ccc([N+](=O)[O-])cc32)cc(OC)c1",
    "pKi": "≤ 6.00"
  }
]

Report measured pKi; entry is `O=C(NCc1ccc(F)cc1)c1ccc2c(c1)N(Cc1cc(F)cc3c1OCOC3)C(=O)/C2=N\O`
> 6.00

Report measured pKi; entry is `O=C1/C(=N\O)c2ccc(-c3cc4ccccc4o3)cc2N1Cc1cc(F)cc2c1OCOC2`
> 6.00

Report measured pKi; entry is `CC(=O)c1ccc(-c2ccc3c(c2)N(Cc2cc(F)cc4c2OCOC4)C(=O)/C3=N\O)cc1`
> 6.00

Report measured pKi; entry is `CN(C)CCNC(=O)c1ccc2c(c1)N(Cc1cc(F)cc3c1OCOC3)C(=O)/C2=N\O`
≤ 6.00

Report measured pKi; entry is `COC(=O)c1ccc2c(c1)N(Cc1cc(C)cc3c1OCOC3)C(=O)/C2=N\O`
> 6.00

----------
Catalogue of compounds with associated Ki
# test-target: JNK3 (Homo sapiens, UniProt P53779)
# Construct: One such construct encodes amino acid residues Ser40-Glu402 of JNK3α1 and is preceded by Met and Gly residues; Met-Gly (initiation methionine plus glycine added for the NcoI site)
# assay-explanation: JNK inhibition assay: spectrophotometric coupled-enzyme assay with activated JNK3
# condition-description: activated JNK3 10 nM, 10 μM ATP, 200 μM EGF receptor peptide, 30° C., competitive inhibition model

Observe how each entry below is paired with its result.
[
  {
    "compound": "Cc1ccc(C(=O)c2ccc3c(c2)/C(=N/O)C(=O)N3Cc2cc(F)cc3c2OCOC3)cc1",
    "Ki": "≥ 1000 nM"
  },
  {
    "compound": "CC(=O)OC(C(=O)Nc1ccc2c(c1)N(Cc1cc(F)cc3c1OCOC3)C(=O)/C2=N/O)c1ccccc1 (centres unmarked)",
    "Ki": "≥ 1000 nM"
  },
  {
    "compound": "O=C1/C(=N\\O)c2c(-c3ccccc3)cccc2N1Cc1cc(F)cc2c1OCOC2",
    "Ki": "≥ 1000 nM"
  },
  {
    "compound": "O=C1/C(=N\\O)c2ccc(NO)cc2N1Cc1cc(F)cc2c1OCOC2",
    "Ki": "< 1000 nM"
  },
  {
    "compound": "Cc1cc2c(c(CN3C(=O)/C(=N\\O)c4ccc(C(=O)O)cc43)c1)OCOC2",
    "Ki": "< 1000 nM"
  }
]

Report measured Ki; entry is `O=C(Nc1ccc2c(c1)N(Cc1cc(F)cc3c1OCOC3)C(=O)/C2=N\O)c1cccc(Cl)c1Cl`
< 1000 nM

Report measured Ki; entry is `C=CCCCN1C(=O)/C(=N\O)c2cc(Br)ccc21`
≥ 1000 nM

Report measured Ki; entry is `CC(=O)Nc1cccc(-c2ccc3c(c2)N(Cc2cc(F)cc4c2OCOC4)C(=O)/C3=N\O)c1`
< 1000 nM
